# System: RL
# experiment_summary: Cytotoxicity against human RL assessed as cell viability after 48 hrs by Hoechst 33342 staining based assay
# Assay type: functional
observation_type: IC50 (µM)
Note: unit µM is implicit; provide only the numeric part.

Worked examples, 10 molecules total:
{"smiles_entry": "COc1cc(OC)c(C(=O)/C=C/c2ccc(Br)cc2)c(OC)c1", "observation_type": "IC50", "endpoint_result": 8.3}
{"smiles_entry": "COc1cc(O)c(C(=O)/C=C/c2ccc(F)cc2)c(OC)c1", "observation_type": "IC50", "endpoint_result": 5.4}
{"smiles_entry": "CC[C@H](CO)Nc1nc(NCc2ccccc2)c2ncn(C(C)C)c2n1", "observation_type": "IC50", "endpoint_result": 0.9}
{"smiles_entry": "COc1cc(OC)c(C(=O)/C=C/c2ccccc2SC)c(OC)c1", "observation_type": "IC50", "endpoint_result": 8.3}
{"smiles_entry": "COc1cc(OC)c(C(=O)/C=C/c2ccccc2OC)c(OC)c1", "observation_type": "IC50", "endpoint_result": 9}
{"smiles_entry": "COc1cc(OC)c(C(=O)/C=C/c2ccccc2)c(OC)c1", "observation_type": "IC50", "endpoint_result": 6.9}
{"smiles_entry": "COc1cccc(/C=C/C(=O)c2c(OC)cc(OC)cc2OC)c1", "observation_type": "IC50", "endpoint_result": 5.9}
{"smiles_entry": "Oc1cccc(-c2nc(N3CCOCC3)c3oc4ncccc4c3n2)c1", "observation_type": "IC50", "endpoint_result": 2.9}
{"smiles_entry": "COc1cc(OC)c(C(=O)/C=C/c2ccc(F)cc2)c(OC)c1", "observation_type": "IC50", "endpoint_result": 6.4}
{"smiles_entry": "COc1cc(O)c(C(=O)/C=C/c2ccccc2SC)c(OC)c1", "observation_type": "IC50", "endpoint_result": 8.9}

Returns the measured IC50 for the input molecule. Input: COc1cc(O)c(C(=O)/C=C/c2ccccc2OC)c(OC)c1
10.1

Thanks! And COc1cc(O)c(C(=O)/C=C/c2ccccc2)c(OC)c1 ?
8.2

What do we get for COc1cccc(/C=C/C(=O)c2c(O)cc(OC)cc2OC)c1 ?
9
